Each recorded value in this set is attributed to PubChem BioAssay (NCI).

Tested on: SNB-75 CNS
Assay: NCI-60 one-dose screen, 48 h
Settings: 10 µM unless noted
This is part of a sample that, as a whole, favours compounds with a hit. Of some 83,000 tested, about 20% had one in any assay. The source made the active and inactive calls. The calls were made as follows: active = growth percent below 10; inactive = the rest.
Outcome codes: active, inactive

compound=COc1ccc(NC(=S)/N=c2\oc3c(OC)cccc3cc2-c2cc3ccccc3[nH]2)cc1 measured_target="SNB-75 CNS" group=active
compound=COc1ccc(-n2c(C)cc(-c3ccccc3)c2C)cc1 measured_target="SNB-75 CNS" group=inactive
compound=O=C(CN1CCN(c2cc3c(cc2F)c(=O)c(C(=O)O)cn3C2CC2)CC1)Nc1ccc(C(=O)/C=C/c2ccccc2)cc1 measured_target="SNB-75 CNS" group=inactive
compound=COC1=CC(c2ccc[nH]2)=N/C1=C\c1[nH]c(C)c(C(=O)CCCCC(=O)Nc2ccccc2)c1C measured_target="SNB-75 CNS" group=inactive
compound="NC(=O)c1c(NC(=O)c2ccc(OCC3CCCO3)cc2)sc2c1CCCC2 (centres undefined)" measured_target="SNB-75 CNS" group=inactive
compound=Cc1ccc(C(=O)c2sc3nc4c(cc3c2N)CCCC4)c(C)c1 measured_target="SNB-75 CNS" group=active
compound=CCN(Cc1ccc(CN(CC)C(=O)C(Cl)(Cl)Cl)cc1)C(=O)C(Cl)(Cl)Cl measured_target="SNB-75 CNS" group=inactive
compound=C=C1C(=O)O[C@H]2[C@H]1CC/C(COC(=O)NCCc1ccc(Br)cc1)=C\CC[C@@]1(C)O[C@@H]21 measured_target="SNB-75 CNS" group=inactive
compound=CNC(C)=O measured_target="SNB-75 CNS" group=inactive
compound=NS(=O)(=O)c1ccc(NCC(=O)Nc2ccc(-c3nc4ccccc4s3)cc2)cc1 measured_target="SNB-75 CNS" group=inactive
compound=COc1ccc(C(=O)c2cc(OC)c(OC)c(OC)c2)cc1/C=C/C(=O)c1ccc(OC)c(OC)c1 measured_target="SNB-75 CNS" group=inactive
compound=COC(=O)c1ccc(C)cc1 measured_target="SNB-75 CNS" group=inactive
compound=Nc1c(C(=O)Nc2ccccc2)sc2nc3c(cc12)CCCCC3 measured_target="SNB-75 CNS" group=active
compound="COc1ccc2c(c1)C=CC(C#N)N2C(=O)c1ccccc1 (centres undefined)" measured_target="SNB-75 CNS" group=active
compound=C[N+](C)(C)c1ccc(CC2c3ccccc3-c3ccccc32)cc1 measured_target="SNB-75 CNS" group=active
compound="COc1ccc(C2=NN(c3ccc(S(N)(=O)=O)cc3)C(c3cn(-c4ccccc4)nc3-c3ccc(Cl)cc3)C2)cc1 (centres undefined)" measured_target="SNB-75 CNS" group=inactive
compound=COc1ccc2c(c1)NC(=O)CN2c1nc(C)nc2ccccc12 measured_target="SNB-75 CNS" group=inactive
compound=COc1ccc(/C=C/C(=O)/C=C/c2cc3ccc(Cl)cc3[nH]c2=O)cc1 measured_target="SNB-75 CNS" group=inactive
compound=Cc1cc2c(C(C)C)c(O)c(O)c(C=NCCCCC(=O)O)c2c(O)c1-c1c(C)cc2c(C(C)C)c(O)c(O)c(C=NCCCCC(=O)O)c2c1O measured_target="SNB-75 CNS" group=inactive
compound=COc1cc(NC(=O)c2cc3ccccc3nc2Nc2ccc(F)cc2)cc(OC)c1OC measured_target="SNB-75 CNS" group=inactive
compound="COc1cc(C2C=C(C)N=C3SC=CN32)cc(OC)c1OC (centres undefined)" measured_target="SNB-75 CNS" group=inactive
compound=Cc1ccc(S(=O)(=O)NCCCNc2nccc(-c3c(-c4ccccc4)nc4sccn34)n2)cc1 measured_target="SNB-75 CNS" group=inactive
compound=CN1CCN(CCCOc2ccc3nc(Nc4ccc(C(F)(F)F)c(Cl)c4)ccc3c2)CC1 measured_target="SNB-75 CNS" group=active
compound=COc1cc(C(=O)/C=C/c2cc(C(=O)c3cc(OC)c(OC)c(OC)c3)ccc2OC)ccc1N measured_target="SNB-75 CNS" group=inactive
compound=O=C(/C=C/CN1CCCCC1)Nc1cc2c(Nc3ccc(F)c(Cl)c3F)ncnc2cc1OCCOC(F)F measured_target="SNB-75 CNS" group=active
compound=COC(=O)CCCCCN=Cc1c(O)c(O)c(C(C)C)c2cc(C)c(-c3c(C)cc4c(C(C)C)c(O)c(O)c(C=NCCCCCC(=O)OC)c4c3O)c(O)c12 measured_target="SNB-75 CNS" group=inactive
compound=COc1cccc(NC(=O)Cn2cc3c(=O)oc4ccccc4c3n2)c1 measured_target="SNB-75 CNS" group=inactive
compound=CC/C=C\C/C=C\C[C@H](O)C/C=C1/C(=O)C=C[C@H]1C/C=C\CCC(=O)OC measured_target="SNB-75 CNS" group=inactive
compound=COc1cc2nc(N3CCC[C@@H](NC4=CC(=O)c5ccccc5C4=O)C3)nc(N)c2cc1OC measured_target="SNB-75 CNS" group=active
compound=Cc1cc(Nc2nc(-c3ccncc3)nc3ccccc23)n[nH]1 measured_target="SNB-75 CNS" group=active
compound=CCCCCC(=O)OCc1ccccc1 measured_target="SNB-75 CNS" group=inactive
compound=Cc1cc2c(C(C)C)c(O)c(O)c(C=NCCCCCCC(=O)O)c2c(O)c1-c1c(C)cc2c(C(C)C)c(O)c(O)c(C=NCCCCCCC(=O)O)c2c1O measured_target="SNB-75 CNS" group=inactive
compound=O=C(/C=C/CN1CCOCC1)Nc1cc2c(Nc3cccc(Cl)c3F)ncnc2cc1OCCOC(F)F measured_target="SNB-75 CNS" group=inactive
compound=C=C1C(=O)O[C@H]2[C@H]1CC/C(COC(=O)NCc1ccc(OC)cc1)=C\CC[C@@]1(C)O[C@@H]21 measured_target="SNB-75 CNS" group=inactive
compound=COc1ccc(C(=O)/C=C/c2cc(C(=O)c3cc(OC)c(OC)c(OC)c3)ccc2OC)cc1 measured_target="SNB-75 CNS" group=inactive
compound="CC(=O)Nc1ccc(S(=O)(=O)NC(CCC(=O)Nc2ccc(Cl)cc2)C(=O)O)cc1 (centres undefined)" measured_target="SNB-75 CNS" group=inactive
compound=COc1ncc(-c2ccc3ncnc(Nc4cccc(Cl)c4)c3c2)cc1NS(=O)(=O)CCN1CCOCC1 measured_target="SNB-75 CNS" group=active
compound=NC(=S)NN=C1CCCCC1 measured_target="SNB-75 CNS" group=inactive
compound=Clc1cccc(Cl)c1Cn1c(-c2cncs2)nc2ccccc21 measured_target="SNB-75 CNS" group=inactive
